Property: solubility kinetic; scope: individual molecules
Settings: buffer; pH 7.4; 200.0 µM
QUANTITY NAME: solubility kinetic (µg/mL)

>>> df
                                    molecule  value_modifier  result_value
 0  COC(=O)C1CCN(C(=O)c2cc(=O)[nH]c3ccccc23)CC1               >          47.2
 1  Cc1ccc(CN2C(=O)C(C)Oc3ccccc32)cc1 (stereo not given)               =           4.7
 2  Cc1ccc(NS(=O)(=O)c2ccc3[nH]c(=O)[nH]c3c2)cc1               =           5.4
 3         COc1ccc(NC(=S)Nc2ccccc2SC)c(OC)c1               =          47.5
 4  COc1ccccc1NS(=O)(=O)c1ccc(C(=O)NCC(c2ccc(F)cc2)N2CCOCC2)cc1 (stereo not given)               >            77
 5              O=C(Nc1ccc(Br)cc1)c1ccccc1Br               =           7.3
 6     NC(=O)Cn1cc(C(=O)COc2ccccc2)c2ccccc21               =          14.6
 7        CCOCc1c(C(=O)NC2CCCCCC2)oc2ccccc12               =           0.9
 8  COc1ccccc1-n1cc(-c2ccccc2)c2c(=S)nc[nH]c21               =          10.6
 9     COc1ccccc1NC(=O)CCN1C(=O)c2ccccc2C1=O               >          48.7
10         Cc1cccc(-c2nc3ccccc3c(=O)[nH]2)c1               =           4.2
11  Cc1cc(OC(=O)N(C)C)nc(SCc2c(Cl)cccc2Cl)n1               =           6.5
12         Cc1ncc([N+](=O)[O-])n1CCOc1nonc1N               >          38.1
13  CC12CCC(C(=O)NCc3ccccc3Cl)(OC1=O)C2(C)C (stereo not given)               >          48.3
14     O=C(Nc1cccnc1Cl)c1cc(-c2cccc(O)c2)on1               =           0.3
15  CCOCCCn1c(=NC(C)=O)c(C#N)cc2c(=O)n3ccccc3nc21               >          54.8
16          Cc1ccc(Cl)cc1NS(=O)(=O)Cc1ccccc1               =             9
17         O=C(NCCS(=O)(=O)NC1CCCC1)c1ccccc1               >          44.5
18               COCCNC(=O)COC(=O)c1cccnc1SC               >          42.6
19           N#C/C(N)=C(/C#N)N=Cc1cccc(Cl)c1               =             4
20  CC(NC(=O)CN1CCN(c2ccc(Cl)cc2)CC1)c1ccccc1 (stereo not given)               =           8.8
21        O=C(NCC(=O)N1CCCCC1)c1ccc2ccccc2c1               >          44.5
22  NS(=O)(=O)c1ccc(CNC(=O)c2ccc3ccccc3n2)cc1               =           3.9
23                O=C(NCc1ccccn1)Nc1ccccc1Cl               >          39.3
24  O=C(CC1SC(N2CCCCC2)=NC1=O)Nc1cccc(C(=O)NCc2ccccc2)c1 (stereo not given)               >          67.6

###

Conditions: buffer; pH 7.4; 200.0 µM
Rule: solubility kinetic of 20 µg/mL or more gives 1; anything lower gives -1.

>>> print(df.to_string())
                                    molecule  answer_label
 0  CCOC(=O)C1CCCN(Cc2cc(=O)oc3cc(C)c(C)cc23)C1 (stereo not given)             1
 1     COc1ccc2c(C)cc(SCC(=O)NC3CCCCC3)nc2c1            -1
 2    COc1ccc(OC)c(NC(=O)Nc2ccc3c(c2)CCC3)c1            -1
 3   O=C1NC(=Nc2ccc(O)cc2)S/C1=C\C=C\c1ccco1            -1
 4    CN(C)CCCNc1nc(-c2ccc(Cl)cc2)nc2ccccc12             1
 5  Cc1cccc(NC2=C(Cl)C(=O)OC2OC(=O)c2ccco2)c1 (stereo not given)             1
 6            Cc1ccc(NC(=S)NC(=O)C2CCC2)cc1C            -1
 7  O=C(O)C(Cc1ccc(O)cc1)N1C(=O)C2CCCCC2C1=O (stereo not given)             1
 8  COc1cccc(N2C(=O)/C(=C/c3ccc(C)o3)C(=O)NC2=S)c1             1
 9  CC(C)CN(C(=O)CCNC(=O)c1ccc(Cl)cc1)C1CCS(=O)(=O)C1 (stereo not given)             1
10             CC(C)(C)CC(=O)NC(=S)NCc1ccco1            -1
11  CCC(C(=O)NC1CCCCCC1)c1ccccc1 (stereo not given)             1
12  CC(OC(=O)c1ccccc1)C(=O)NCc1ccco1 (stereo not given)             1
13          COc1cccc(OCCNC(=O)c2ccc(C)cc2)c1             1
14                CCCN(CCC)C(=O)Cc1ccc(F)cc1             1
15  Cc1cnc(CNC(=O)c2ccc3oc(C(C)C)nc3c2)[nH]1             1
16                Cc1ccc(Sc2ncccc2C(N)=O)cc1             1
17          O=C(NCc1ccccc1)c1cc[n+]([O-])cc1             1
18   Cc1cc(C)c(C(=O)COC(=O)c2cccnc2Cl)c(C)c1            -1
19  Cc1cc(Cl)ccc1OC(C)C(=O)OCC(=O)c1ccc[nH]1 (stereo not given)            -1
20  O=C1CSC(c2ccncc2)N1Cc1ccc(F)cc1 (stereo not given)             1
21     Cn1ncc(Cl)c1C(=O)Nc1ccc(CN2CCCCC2)cc1             1
22     CCS(=O)(=O)N1CCC(C(=O)Nc2ccccc2OC)CC1             1
23      Cc1ccc(C)c(OCCC(=O)NCCc2ccc(F)cc2)c1             1

###

Each record here notes measured solubility kinetic.
Details: buffer; pH 7.4; 200.0 µM
QUANTITY NAME: solubility kinetic

                                    compound  result_value
 0       Cc1cccc(OCC(=O)NCCNC(=O)c2ccccn2)c1    > 47 µg/mL
 1  Cc1[nH]c2ccc(C(=O)N3CCC(C(N)=O)CC3)cc2c1C  > 44.9 µg/mL
 2  CN(C(=O)COC(=O)c1cc[n+]([O-])cc1)c1ccccc1  > 42.9 µg/mL
 3  NS(=O)(=O)c1ccc(CCNC(=O)C2CCCO2)cc1 (stereo not given)  > 44.8 µg/mL
 4           Clc1ccc(-c2noc(CN3CCOCC3)n2)cc1    > 42 µg/mL
 5                N#Cc1c(N2CCCC2)ccc(Br)c1Cl   < 0.3 µg/mL
 6              Nc1ccc(Sc2nc3ccccc3[nH]2)cc1  > 36.2 µg/mL
 7        CC1(C)OC(=O)C(=Cc2ccc[nH]2)C(=O)O1    25.4 µg/mL
 8  CC1CC(C)CN(C(=O)C(C)N(C)CC(=O)Nc2ccccc2Cl)C1 (stereo not given)  > 54.9 µg/mL
 9  N#Cc1cc([N+](=O)[O-])ccc1NC(=O)CSc1n[nH]c(=O)[nH]c1=O  > 52.2 µg/mL
10  CC(NC(=O)CSc1ncccn1)c1ccc2c(c1)OCO2 (stereo not given)  > 47.6 µg/mL
11         Cc1cc(SCc2c(F)cccc2Cl)nc(=O)[nH]1    39.2 µg/mL
12  Cc1ccc(S(=O)(=O)CC(=O)N2CC(C)OC(C)C2)cc1 (stereo not given)  > 46.7 µg/mL
13         C=CC(=O)NN(C)c1ncc(C(F)(F)F)cc1Cl  > 41.9 µg/mL
14         CSc1ccccc1NC(=O)CSc1cccc[n+]1[O-]    > 46 µg/mL
15  Cc1ccc(S(=O)(=O)N2CCCC(C(=O)NCC3CCCO3)C2)cc1 (stereo not given)    > 55 µg/mL
16                CCOC(=O)c1sc(-c2cccs2)nc1C     2.6 µg/mL
17  COc1ccc2oc(=O)c(C(=O)NCc3ccc(F)cc3)cc2c1     0.8 µg/mL
18  CC(=NCc1ccc2c(c1)OCO2)c1c(O)n(-c2ccccc2)c(=O)[nH]c1=O     6.6 µg/mL
19  O=C(NC(=S)NC1CCSC1=O)c1cccc([N+](=O)[O-])c1 (stereo not given)    43.2 µg/mL
20             Cc1ccccc1C(=O)NC(=S)Nc1ncccn1    15.6 µg/mL
21             COc1cc(-c2noc(C)n2)cc(OC)c1OC    35.7 µg/mL
22  Cc1ccc(C)c(OCC(=O)Nc2ccc(N3CCOCC3)cc2)c1     6.1 µg/mL
23            O=C(Nc1ccccc1Cl)c1ccc2ccccc2c1   < 0.6 µg/mL
24  COc1ccc(S(=O)(=O)N2CC(C)N(C(=O)N(C)C)C2C)cc1 (stereo not given)  > 51.2 µg/mL
